meta.source: patent US11427548B2

target-desc: Androgen Receptor (Homo sapiens)
Construct: endogenous in cells; host or cells: VCaP cells
Sequence (P10275 whole entry): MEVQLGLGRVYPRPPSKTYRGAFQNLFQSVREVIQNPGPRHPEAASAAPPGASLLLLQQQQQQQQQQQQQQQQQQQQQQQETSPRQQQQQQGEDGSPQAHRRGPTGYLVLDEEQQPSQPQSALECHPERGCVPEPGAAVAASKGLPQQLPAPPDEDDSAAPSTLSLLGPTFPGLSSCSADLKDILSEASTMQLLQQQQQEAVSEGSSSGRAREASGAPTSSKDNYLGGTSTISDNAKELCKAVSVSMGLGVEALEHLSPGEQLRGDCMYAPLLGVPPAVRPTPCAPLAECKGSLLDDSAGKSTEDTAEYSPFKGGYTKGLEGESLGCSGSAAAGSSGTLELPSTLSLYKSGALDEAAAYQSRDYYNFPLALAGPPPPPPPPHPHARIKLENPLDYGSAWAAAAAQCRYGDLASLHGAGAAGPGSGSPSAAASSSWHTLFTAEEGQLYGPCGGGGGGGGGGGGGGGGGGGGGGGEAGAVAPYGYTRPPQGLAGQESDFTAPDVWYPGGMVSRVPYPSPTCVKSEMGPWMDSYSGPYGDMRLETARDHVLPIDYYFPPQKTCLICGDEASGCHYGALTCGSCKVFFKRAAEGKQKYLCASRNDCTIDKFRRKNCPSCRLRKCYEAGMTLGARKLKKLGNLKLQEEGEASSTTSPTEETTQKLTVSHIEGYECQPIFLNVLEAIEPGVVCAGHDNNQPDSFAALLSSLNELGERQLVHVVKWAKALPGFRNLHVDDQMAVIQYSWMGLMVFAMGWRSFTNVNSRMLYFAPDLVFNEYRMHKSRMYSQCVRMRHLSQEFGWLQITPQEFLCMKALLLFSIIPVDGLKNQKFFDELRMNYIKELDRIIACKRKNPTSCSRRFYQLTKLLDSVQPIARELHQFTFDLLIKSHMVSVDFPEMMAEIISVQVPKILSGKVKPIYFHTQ
protocol-details: Androgen Receptor ELISA assay (PathScan AR ELISA) in VCaP cells: AR degradation, Dmax and DC50
Assay type: cell-based
condition-set: VCaP, VCaP cells; highest percentage of Androgen Receptor degradation; read-out: VCaP Dmax (%)
assay-endpoint: Dmax

| compound | result |
| --- | --- |
| Cc1ncsc1-c1ccc(CNC(=O)[C@@H]2C[C@@H](O)CN2C(=O)[C@@H](NC(=O)COCCCCOc2ccc(-c3ccc(N4C(=S)N(c5cnc(C#N)c(C(F)(F)F)c5)C(=O)C45CCC5)cc3)cc2)C(C)(C)C)cc1 | 51 to 70% |
| Cc1ncsc1-c1ccc(CNC(=O)[C@@H]2C[C@@H](O)CN2C(=O)[C@@H](NC(=O)COCCNc2ccc(-c3ccc(C(=O)NC4C(C)(C)C(Oc5ccc(C#N)c(Cl)c5)C4(C)C)cc3)cc2)C(C)(C)C)cc1 (stereo partly shown) | > 71% |
| Cc1ncoc1-c1ccc(CNC(=O)[C@@H]2C[C@@H](O)CN2C(=O)[C@@H](NC(=O)COCCCCOc2ccc(-c3ccc(N4C(=S)N(c5cnc(C#N)c(C(F)(F)F)c5)C(=O)C45CCC5)cc3)cc2)C(C)(C)C)cc1 | 51 to 70% |
| CC(C)(C)[C@H](NC(=O)COCCCCOc1ccc(-c2ccc(N3C(=S)N(c4cnc(C#N)c(C(F)(F)F)c4)C(=O)C3(C)C)cc2)cc1)C(=O)N1C[C@H](O)C[C@H]1C(=O)NCc1ccc(-c2cnco2)cc1 | > 71% |
